The measurements presented in this section are drawn from paper PMC6923801.

target: human GPR68 (Homo sapiens, UniProt Q15743); experiment: GloSensor cAMP assay, proton-mediated Gs-cAMP production at human GPR68; assay type: cell-based; details: allosteric binding affinity from functional assay; human GPR68; mean ± SEM
Sequence (Q15743 whole entry): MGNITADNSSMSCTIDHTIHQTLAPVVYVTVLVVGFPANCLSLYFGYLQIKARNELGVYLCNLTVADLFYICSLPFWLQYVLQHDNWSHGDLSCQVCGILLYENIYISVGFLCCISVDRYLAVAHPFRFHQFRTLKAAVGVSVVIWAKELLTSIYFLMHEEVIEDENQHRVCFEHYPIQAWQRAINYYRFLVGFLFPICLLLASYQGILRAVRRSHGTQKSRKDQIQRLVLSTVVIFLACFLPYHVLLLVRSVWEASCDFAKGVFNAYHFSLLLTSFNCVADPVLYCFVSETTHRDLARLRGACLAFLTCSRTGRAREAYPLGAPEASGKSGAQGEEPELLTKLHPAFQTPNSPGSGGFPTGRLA
READOUT LABEL: −Log (KB)

In plain terms, "Cc1ccccc1-c1nc(N)nc(NCc2ccccc2)n1" has a documented −Log (KB) of Weak PAM

In plain terms, "Nc1cc(-c2ccccc2CO)nc(NCc2ccccc2)n1" has a documented −Log (KB) of Weak PAM

In plain terms, CC(O)c1ccccc1-c1nc(N)nc(NCc2ccccc2)n1 (stereo not shown) has a documented −Log (KB) of Weak PAM

###

biological target: human GPR68 (Homo sapiens); assay: GloSensor cAMP assay, proton-mediated Gs-cAMP production at human GPR68; format: cell-based
For each of the compounds below, state its Kb.
Output spec: scalar in µM, unitless text.

In plain terms, "Cc1cccc(CNc2nc(N)nc(-c3ccccc3CO)n2)c1" has a documented Kb of 39.8

In plain terms, "Nc1nc(NCc2ccccc2)nc(-c2ccccc2CO)n1" has a documented Kb of 44.7

In plain terms, "Nc1nc(NCCCc2ccccc2)nc(-c2c(F)cccc2CO)n1" has a documented Kb of 33.9

In plain terms, "Nc1nc(NCCc2ccc(Oc3ccccc3)cc2)nc(-c2ccccc2CO)n1" has a documented Kb of 10

In plain terms, "Nc1nc(NCc2cccc(F)c2)nc(-c2ccccc2CO)n1" has a documented Kb of 30.2

In plain terms, "CCOc1ccc(-c2nc(N)nc(NCc3ccccc3)n2)c(CO)c1" has a documented Kb of 42.7

In plain terms, "Nc1nc(NCc2ccccc2Cl)nc(-c2ccccc2CO)n1" has a documented Kb of 8.51

In plain terms, "Nc1nc(NCCc2ccccc2)nc(-c2cc(Cl)ccc2CO)n1" has a documented Kb of 7.24

In plain terms, "NCc1ccccc1-c1nc(N)nc(NCc2ccccc2)n1" has a documented Kb of 138

In plain terms, "CNc1nc(NCc2ccccc2)nc(-c2ccccc2CO)n1" has a documented Kb of 30.9

In plain terms, "Nc1nc(NCc2ccccc2)nc(-c2cc(Cl)ccc2CO)n1" has a documented Kb of 32.4

In plain terms, "Nc1nc(Nc2ccccc2)nc(-c2ccccc2CO)n1" has a documented Kb of 120

In plain terms, "COc1cccc(CNc2nc(N)nc(-c3ccccc3CO)n2)c1" has a documented Kb of 77.6

In plain terms, "CC(C)Oc1ccc(CNc2nc(N)nc(-c3ccccc3CO)n2)cc1" has a documented Kb of 10.2
